- Test system: panel of nearly 500 cancer cell lines
- Run description: Cancer Cell Line Encyclopedia profiling, 3-day CellTiter-Glo
- Assay type: cell-based
- Condition set: ncih747 (large_intestine); read-out: IC50
Measurement type: IC50

Molecule: CC(=O)c1c(C)c2cnc(Nc3ccc(N4CCNCC4)cn3)nc2n(C2CCCC2)c1=O [Palbociblib]
Data value: > 8 µM

###

- Tested on: panel of nearly 500 cancer cell lines
- Run description: Cancer Cell Line Encyclopedia profiling, 3-day CellTiter-Glo
- Assay type: cell-based
- Condition set: Homo sapiens, NCI-H1944
Measurement type: IC50

Compound smiles: CN(C)C(=O)c1cc2cnc(Nc3ccc(N4CCNCC4)cn3)nc2n1C1CCCC1
Data value: > 8 µM

###

- Tested on: panel of nearly 500 cancer cell lines
- Run description: Cancer Cell Line Encyclopedia profiling, 3-day CellTiter-Glo
- Format: cell-based
- Condition set: Homo sapiens, SK-MEL-30
Measurement type: IC50

Compound smiles: CN(C)C(=O)c1cc2cnc(Nc3ccc(N4CCNCC4)cn3)nc2n1C1CCCC1
Data value: > 8 µM

###

- Test system: panel of nearly 500 cancer cell lines
- Run description: Cancer Cell Line Encyclopedia profiling, 3-day CellTiter-Glo
- Format: cell-based
- Condition set: lounh91 (lung); read-out: IC50
pIC50: −log10 of the molar value.

Compound smiles: CC(=O)c1c(C)c2cnc(Nc3ccc(N4CCNCC4)cn3)nc2n(C2CCCC2)c1=O
pIC50: < 5.10

###

- Test system: panel of nearly 500 cancer cell lines
- Run description: Cancer Cell Line Encyclopedia profiling, 3-day CellTiter-Glo
- Assay type: cell-based
- Condition set: PL45

Molecule: CN(C)C(=O)c1cc2cnc(Nc3ccc(N4CCNCC4)cn3)nc2n1C1CCCC1 [Ribociclib]
Target system: panel of nearly 500 cancer cell lines
IC50: > 8 µM

###

- Test system: panel of nearly 500 cancer cell lines
- Run description: Cancer Cell Line Encyclopedia profiling, 3-day CellTiter-Glo
- Assay type: cell-based
- Condition set: Homo sapiens, HCC1806
Measurement type: IC50

Molecule: CN(C)C(=O)c1cc2cnc(Nc3ccc(N4CCNCC4)cn3)nc2n1C1CCCC1 [Ribociclib]
Measurement type: IC50
Data value: > 8 µM

###

- Tested on: panel of nearly 500 cancer cell lines
- Run description: Cancer Cell Line Encyclopedia profiling, 3-day CellTiter-Glo
- Format: cell-based
- Condition set: Homo sapiens, SNU-449
pIC50: −log10 of the molar value.

Molecule: CN(C)C(=O)c1cc2cnc(Nc3ccc(N4CCNCC4)cn3)nc2n1C1CCCC1 [Ribociclib]
pIC50: < 5.10

###

- Test system: MGH049
- Run description: cells
- Assay type: cell-based
- Condition set: MGH049, 72 h
Measurement type: IC50 (µM)

Compound smiles: CN(C)C(=O)c1cc2cnc(Nc3ccc(N4CCNCC4)cn3)nc2n1C1CCCC1
Target system: MGH049
Data value: 0.54

###

- System: panel of nearly 500 cancer cell lines
- Run description: Cancer Cell Line Encyclopedia profiling, 3-day CellTiter-Glo
- Type: cell-based
- Condition set: ncih2052 (pleura); read-out: IC50
pIC50: −log10 of the molar value.
Measurement type: pIC50

Compound smiles: CC(=O)c1c(C)c2cnc(Nc3ccc(N4CCNCC4)cn3)nc2n(C2CCCC2)c1=O
Data value: < 5.10

###

- System: panel of nearly 500 cancer cell lines
- Run description: Cancer Cell Line Encyclopedia profiling, 3-day CellTiter-Glo
- Assay type: cell-based
- Condition set: ons76 (central_nervous_system); read-out: IC50

Compound smiles: CC(=O)c1c(C)c2cnc(Nc3ccc(N4CCNCC4)cn3)nc2n(C2CCCC2)c1=O
IC50: > 8 µM

###

- System: panel of nearly 500 cancer cell lines
- Run description: Cancer Cell Line Encyclopedia profiling, 3-day CellTiter-Glo
- Format: cell-based
- Condition set: Homo sapiens, SK-LMS-1
pEC50: −log10 of the molar value.

Compound smiles: CN(C)C(=O)c1cc2cnc(Nc3ccc(N4CCNCC4)cn3)nc2n1C1CCCC1
pEC50: 5.90

###

- System: panel of nearly 500 cancer cell lines
- Run description: Cancer Cell Line Encyclopedia profiling, 3-day CellTiter-Glo
- Type: cell-based
- Condition set: Homo sapiens, HuCCT-1

Compound: CN(C)C(=O)c1cc2cnc(Nc3ccc(N4CCNCC4)cn3)nc2n1C1CCCC1 [Ribociclib]
IC50: > 8 µM

###

- Test system: panel of nearly 500 cancer cell lines
- Run description: Cancer Cell Line Encyclopedia profiling, 3-day CellTiter-Glo
- Type: cell-based
- Condition set: t98g (central_nervous_system); read-out: IC50
pIC50: −log10 of the molar value.
Measurement type: pIC50

Compound smiles: CC(=O)c1c(C)c2cnc(Nc3ccc(N4CCNCC4)cn3)nc2n(C2CCCC2)c1=O
Data value: < 5.10

###

- System: panel of nearly 500 cancer cell lines
- Run description: Cancer Cell Line Encyclopedia profiling, 3-day CellTiter-Glo
- Assay type: cell-based
- Condition set: Homo sapiens, KYSE-510

Compound smiles: CN(C)C(=O)c1cc2cnc(Nc3ccc(N4CCNCC4)cn3)nc2n1C1CCCC1
EC50: > 8 µM

###

- Tested on: panel of nearly 500 cancer cell lines
- Run description: Cancer Cell Line Encyclopedia profiling, 3-day CellTiter-Glo
- Type: cell-based
- Condition set: Homo sapiens, OCI-Ly10
pEC50: −log10 of the molar value.

Compound smiles: CN(C)C(=O)c1cc2cnc(Nc3ccc(N4CCNCC4)cn3)nc2n1C1CCCC1
pEC50: < 5.10

###

- System: panel of nearly 500 cancer cell lines
- Run description: Cancer Cell Line Encyclopedia profiling, 3-day CellTiter-Glo
- Assay type: cell-based
- Condition set: Homo sapiens, FaDu

Compound smiles: CN(C)C(=O)c1cc2cnc(Nc3ccc(N4CCNCC4)cn3)nc2n1C1CCCC1
IC50: > 8 µM

###

- System: panel of nearly 500 cancer cell lines
- Run description: Cancer Cell Line Encyclopedia profiling, 3-day CellTiter-Glo
- Format: cell-based
- Condition set: skhep1 (liver); read-out: IC50
pIC50: −log10 of the molar value.
Measurement type: pIC50

Compound smiles: CC(=O)c1c(C)c2cnc(Nc3ccc(N4CCNCC4)cn3)nc2n(C2CCCC2)c1=O
Target system: panel of nearly 500 cancer cell lines
Data value: < 5.10

###

- Test system: panel of nearly 500 cancer cell lines
- Run description: Cancer Cell Line Encyclopedia profiling, 3-day CellTiter-Glo
- Assay type: cell-based
- Condition set: Homo sapiens, NCI-H520
Measurement type: EC50 (nM)

Compound: CN(C)C(=O)c1cc2cnc(Nc3ccc(N4CCNCC4)cn3)nc2n1C1CCCC1
Target system: panel of nearly 500 cancer cell lines
Measurement unit: nM
Sign: >
Data value: 8000
--
Compound: CC(=O)c1c(C)c2cnc(Nc3ccc(N4CCNCC4)cn3)nc2n(C2CCCC2)c1=O [Palbociclib, reference compound]
Target system: panel of nearly 500 cancer cell lines
Measurement unit: nM
Sign: =
Data value: 706

###

- Tested on: panel of nearly 500 cancer cell lines
- Run description: Cancer Cell Line Encyclopedia profiling, 3-day CellTiter-Glo
- Assay type: cell-based
- Condition set: Homo sapiens, SW48

Compound smiles: CN(C)C(=O)c1cc2cnc(Nc3ccc(N4CCNCC4)cn3)nc2n1C1CCCC1
IC50: > 8 µM

###

- Test system: panel of nearly 500 cancer cell lines
- Run description: Cancer Cell Line Encyclopedia profiling, 3-day CellTiter-Glo
- Type: cell-based
- Condition set: Homo sapiens, NCI-H1048
pIC50: −log10 of the molar value.

Compound smiles: CN(C)C(=O)c1cc2cnc(Nc3ccc(N4CCNCC4)cn3)nc2n1C1CCCC1
pIC50: < 5.10

###

Recorded EC50 values for a group of molecules are listed next.
- System: panel of nearly 500 cancer cell lines
- Run description: Cancer Cell Line Encyclopedia profiling, 3-day CellTiter-Glo
- Format: cell-based
- Condition set: Homo sapiens, SK-N-SH

Molecule: CC(=O)c1c(C)c2cnc(Nc3ccc(N4CCNCC4)cn3)nc2n(C2CCCC2)c1=O [Palbociclib, reference compound]
Sign: =
EC50, nM: 1250
--
Molecule: CN(C)C(=O)c1cc2cnc(Nc3ccc(N4CCNCC4)cn3)nc2n1C1CCCC1 [Ribociclib]
Sign: >
EC50, nM: 8000

###

- Tested on: panel of nearly 500 cancer cell lines
- Run description: Cancer Cell Line Encyclopedia profiling, 3-day CellTiter-Glo
- Type: cell-based
- Condition set: Homo sapiens, COLO 320
pIC50: −log10 of the molar value.
Measurement type: pIC50

Compound smiles: CN(C)C(=O)c1cc2cnc(Nc3ccc(N4CCNCC4)cn3)nc2n1C1CCCC1
Target system: panel of nearly 500 cancer cell lines
Data value: < 5.10

###

- System: SK-MEL-5
- Run description: cells
- Assay type: cell-based
- Condition set: Homo sapiens, SK-MEL-5, 72 h

Compound: CN(C)C(=O)c1cc2cnc(Nc3ccc(N4CCNCC4)cn3)nc2n1C1CCCC1 [Ribociclib]
IC50: > 10 µM
